- experimentalTarget: CB2 receptor (Rattus norvegicus, UniProt Q9QZN9)
- Construct: 30 µg membrane proteins prepared in item a); endogenous in cells; host or cells: RBL-2H3 cells (plasma membrane preparation)
- Sequence (Q9QZN9 1-360): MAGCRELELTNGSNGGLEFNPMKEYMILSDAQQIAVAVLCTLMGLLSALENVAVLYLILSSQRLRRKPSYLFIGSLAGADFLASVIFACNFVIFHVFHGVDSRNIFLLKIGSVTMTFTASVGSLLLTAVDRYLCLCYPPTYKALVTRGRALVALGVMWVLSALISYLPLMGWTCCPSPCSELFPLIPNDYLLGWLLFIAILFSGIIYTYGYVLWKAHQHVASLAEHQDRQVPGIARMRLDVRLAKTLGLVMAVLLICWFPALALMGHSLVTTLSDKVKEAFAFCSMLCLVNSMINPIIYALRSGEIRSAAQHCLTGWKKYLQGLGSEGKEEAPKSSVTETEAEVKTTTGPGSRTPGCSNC
- measurementNotes: 3H-WIN 55,212-2 binding displacement on RBL-2H3 cell membranes
- experimentalContext: competitor 10 µM; amides in 0.1% DMSO, Anandamide and Nabilone in 0.1% ethanol
readoutType: Displacement (%)
Give a bare numeral; the unit % is implied.

Solved cases (3 shown):
INSERT INTO assay_data (molecule, experimentaltarget, readouttype, datavalue) VALUES
  ('CCCCCCCCCCCCCCCC(=O)N[C@@H](CO)C(=O)O', 'CB2 receptor (Rattus norvegicus, UniProt Q9QZN9)', 'Displacement (%)', 100),
  ('CCCCC/C=C\C/C=C\C/C=C\C/C=C\CCCC(=O)NCCO [Anandamide, arachidonylethanolamide, reference compound]', 'CB2 receptor (Rattus norvegicus, UniProt Q9QZN9)', 'Displacement (%)', 95),
  ('CCCCCCCCCCCCCCCC(=O)NCC(=O)O', 'CB2 receptor (Rattus norvegicus, UniProt Q9QZN9)', 'Displacement (%)', 79);

Shift focus to the following entry.
Task item: Record request: Displacement (%) value, item CCCCCCC(C)(C)c1cc(O)c2c(c1)OC(C)(C)C1CCC(=O)CC21 (stereo not shown) [Nabilone, reference compound]
Reply: 100

----------
- measurementNotes: water solubility
- experimentalContext: water
readoutType: solubility

Solved cases (2 shown):
INSERT INTO measurements (compound, readouttype, datavalue) VALUES
  ('O=C(O)CNC(=O)/C=C/CCCCCCCCC(=O)NCC(=O)O [Example 13, N,N''-trans-2-dodecendioyl-diglycine]', 'solubility', '> 10000 µg/mL'),
  ('O=C(CCCCCCCC(=O)NC(CO)C(=O)O)NC(CO)C(=O)O (stereo not drawn)', 'solubility', '> 10000 µg/mL');

Shift focus to the following entry.
Task item: Record request: solubility value, item `CCCCCCCCCCCC(=O)N[C@@H](CO)C(=O)O`
Reply: > 10000 µg/mL

----------
- measurementNotes: solubility in organic solvents
- Format: physicochemical
- experimentalContext: organic solvent or mixture; in DMSO; read-out: solubility in org. sol.
readoutType: solubility

INSERT INTO measurements (compound, datavalue) VALUES
  ('CCCCCCCCCCCC(=O)N1CC(O)C[C@H]1C(=O)O (stereo partly drawn) [Example 17, N-lauroyl-4-hydroxy-L-proline]', '> 10000 µg/mL');

Task item: Record request: solubility value, item CCCCCCCCCCCC(=O)N[C@H]1C(O)O[C@H](CO)[C@@H](O)[C@@H]1O (stereo partly drawn)
Reply: > 5000 µg/mL

Task item: # iterate: `CCCCCCCCCCCC(=O)N[C@@H](CO)C(=O)OC`
Reply: > 10000 µg/mL

Task item: # iterate: `CCCCCCCCCCCCCCCC(=O)N[C@@H](CS)C(=O)O`
Reply: > 10000 µg/mL

Task item: # iterate: `CCCCCCCCCCCCCCCC(=O)N[C@@H](CO)C(=O)O`
Reply: > 10000 µg/mL

Task item: # iterate: CCCCCCCC/C=C\CCCCCCCC(=O)N[C@H]1C(O)O[C@H](CO)[C@@H](O)[C@@H]1O (stereo partly drawn)
Reply: > 5000 µg/mL

Task item: # iterate: `CCCCCCCCCCCCCCCC(=O)NCC(=O)O`
Reply: > 10000 µg/mL

Task item: # iterate: `CCCCCCCCCCCC(=O)N[C@@H](CO)C(=O)O`
Reply: > 10000 µg/mL

Task item: # iterate: O=C(CCCCCCCC(=O)NC(CO)C(=O)O)NC(CO)C(=O)O (stereo not drawn)
Reply: > 10000 µg/mL

----------
- Test system: RBL-2H3 cells
- measurementNotes: 3H-serotonin release induced by ADNP/DNP.HSA immunogenic stimulation
- Type: cell-based, rat
- experimentalContext: Rattus norvegicus, RBL-2H3; read-out: ED50 (the source's name)
readoutType: pEC50
Scale explanation: pEC50 corresponds to minus log10 of a concentration expressed in moles per litre.

Task item: Record request: pEC50 value, item CCCCCc1cc(O)c2c(c1)OC(C)(C)[C@@H]1CCC(C)=C[C@@H]21 [Δ9-THC, Δ9-tetrahydrocannabinol, reference compound]
Reply: 5.30

Origin of the recorded values: patent EP0799188B1
